subject of test: 3',5'-cyclic-AMP phosphodiesterase 4B (Homo sapiens) (UniProt Q07343)
Sequence (Q07343 whole entry, looked up): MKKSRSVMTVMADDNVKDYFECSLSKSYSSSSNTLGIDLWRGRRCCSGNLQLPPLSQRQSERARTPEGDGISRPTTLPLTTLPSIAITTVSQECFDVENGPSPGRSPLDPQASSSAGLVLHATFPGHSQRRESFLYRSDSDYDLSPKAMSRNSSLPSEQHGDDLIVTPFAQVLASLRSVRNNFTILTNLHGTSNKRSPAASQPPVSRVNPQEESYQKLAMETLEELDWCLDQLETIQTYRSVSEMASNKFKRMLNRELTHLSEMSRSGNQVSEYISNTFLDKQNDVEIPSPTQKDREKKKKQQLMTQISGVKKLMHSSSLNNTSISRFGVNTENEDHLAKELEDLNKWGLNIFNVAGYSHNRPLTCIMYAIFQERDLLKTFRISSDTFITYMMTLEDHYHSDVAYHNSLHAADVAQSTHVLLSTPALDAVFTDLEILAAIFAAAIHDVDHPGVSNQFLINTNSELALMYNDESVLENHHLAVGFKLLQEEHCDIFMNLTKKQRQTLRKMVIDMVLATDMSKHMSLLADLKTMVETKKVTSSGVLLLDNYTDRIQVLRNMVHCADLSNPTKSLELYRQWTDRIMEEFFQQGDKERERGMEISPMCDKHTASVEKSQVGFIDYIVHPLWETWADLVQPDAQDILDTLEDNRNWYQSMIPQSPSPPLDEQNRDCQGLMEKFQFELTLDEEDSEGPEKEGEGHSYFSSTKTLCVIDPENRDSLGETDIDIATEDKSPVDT
experiment description: qHTS Assay for Inhibitors of PDE-IV (AID 607); note: % of control where 0% means no effect
condition context: HEK293 ACTOne CNG channel cells, membrane potential fluorescence; series mostly up to 22.9 µM
Inconclusive results are not listed. Calls of active or inactive are those of the source. Calls come from the whole dose curve; as a rule, active = well fitted activation curve with a large enough effect in the main read-out, with a control signal flat (not every such curve was filed as active); inconclusive = small, poorly fitted or top-dose-only effect, or effect the other way, or a change in a side signal; inactive = flat fitted curve, though single readings scatter.
property name: outcome

1. NCCC[C@@H](CC(=O)N[C@@H]1CCNC[C@H]1C(=O)N[C@H](CC(=O)N[C@@H](CCC(=O)O)CC(=O)O)Cc1ccccc1)NC(=O)C[C@H](Cc1c[nH]c2ccccc12)NC(=O)[C@@H]1CCCC[C@H]1N; inactive
2. NCCC[C@@H](CC(=O)N[C@@H]1CCNC[C@H]1C(=O)N[C@H](CC(=O)N[C@@H](CCC(=O)O)CC(=O)O)Cc1ccccc1)NC(=O)C[C@H](Cc1c[nH]c2ccccc12)NC(=O)[C@@H]1CNCC[C@H]1N; inactive
3. C=C/C(=C\C)C[C@@H](CC(=O)N[C@@H](CCC(=O)O)CC(=O)O)NC(=O)[C@@H]1CNCC[C@H]1NC(=O)C[C@@H](NC(=O)C[C@H](Cc1ccccc1)NC(=O)[C@@H]1CCCC[C@H]1N)C(C)C; inactive

----------
System: CP286
experiment description: qHTS profiling for inhibitors of Plasmodium falciparum proliferation (AID 504749); note: nearly all actives have a fitted effect of over 60% in size
condition context: P. falciparum in erythrocytes, SYBR Green DNA, 72 h; series mostly up to 28.7 µM
Records with an inconclusive call do not appear. Activity calls are given as the source filed them. Calls come from the whole dose curve; as a rule, active = well fitted inhibition curve with a large enough effect; inconclusive = small, poorly fitted or top-dose-only effect; inactive = flat fitted curve, though single readings scatter.
Possible outcomes: true (1) for active, false (0) for inactive

1) CN[C@H](C)CCC=C(C)C; true (1)
2) CCCCCOC(=O)Nc1nc(=O)n(C2O[C@H](C)[C@@H](O)[C@@H]2O)cc1F (stereo not given in full); false (0)
3) C[C@H]1OC(OC2C(O)[C@@H](O)C(OC3C(O)[C@@H](O)C(O)O[C@@H]3CO)O[C@@H]2CO)[C@H](O)C(O)C1N[C@H]1C=C(CO)[C@@H](O)[C@H](O)C1O (stereo not given in full); false (0)
4) C=C1[C@@H]2CC[C@H](C2)C1(C)C; false (0)
5) CC(C)C(=O)OCC(=O)[C@@]12OC(C3CCCCC3)O[C@@H]1CC1C3CCC4=CC(=O)C=C[C@]4(C)C3[C@@H](O)C[C@@]12C (stereo not given in full); true (1)

----------
experiment description: qHTS profiling for inhibitors of Plasmodium falciparum proliferation (AID 504749); note: nearly all actives have a fitted effect of over 60% in size;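 for activity, negative = inhibition: 0% = DMSO vehicle and full inhibition = artemisinin control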
condition context: P. falciparum in erythrocytes, SYBR Green DNA, 72 h; at 28.7 µM (top of the series); parasite line B
Results filed as inconclusive are left out.
property name: activity, negative = inhibition (%)

1) Cc1cn([C@H]2CC(F)[C@@H](CO)O2)c(=O)[nH]c1=O (stereo not given in full); 4.03
2) NC[C@@H]1O[C@H](OC2[C@@H](CO)O[C@@H](OC3[C@H](O)[C@H](N)C[C@H](N)[C@H]3OC3O[C@H](CO)[C@@H](O)[C@H](O)[C@@H]3N)[C@H]2O)C(N)[C@H](O)[C@@H]1O (stereo not given in full); 20
3) O=C(O)[C@H]1C[C@@H](CP(=O)(O)O)CCN1; -2.91
4) NC(C(=O)O)c1ccc(O)cc1 (stereo not given); 9.1
5) NC(=O)C1CC2(NC(=O)NC2=O)c2cc(F)ccc2O1 (stereo not given); 7.45
6) OCCOC[C@H]1O[C@H](OCCO)[C@H](OCCO)[C@@H](OCCO)[C@@H]1OCCO (tested in a mixture with another compound); 1.14
7) Nc1ncn(C2C[C@H](O)[C@@H](CO)O2)c(=O)n1 (stereo not given in full); -13.9
8) Cc1onc(-c2c(F)cccc2Cl)c1C(=O)NC1C(=O)N2C1SC(C)(C)C2C(=O)O (stereo not given); -4.31
9) N#C/C(=C1/SCC(c2ccccc2Cl)S1)n1ccnc1 (stereo not given); -14.7
10) NC(=O)NC(CCC(=O)O)C(=O)O (stereo not given); 3.49
